Assign CRF1R EC50 to each entry below.
molecular target: corticotropin releasing factor 1 receptor; experiment: cell-based or functional assay
Ends that are not written are not given here.
One number for each entry, in nM.

Incoming: # get_value(readout='CRF1R EC50', item= ZGPPISIDLPFYLLRKMIEIEKQEKEKQQATTNARILARV (C-terminal amide) [SEQ ID NO 147] )
Outgoing: 102

Incoming: What measured CRF1R EC50 goes with DNPSLSIDLPLILLRTLLELARTQSQRERAEQNAIIFASV-NH2 [SEQ ID NO 175] ?
Outgoing: 1000

Incoming: What value of measured CRF1R EC50 is listed for ZGPPISIDLPYQLLRKMIEIEKQEKEKQQAANNRLLLDTI (C-terminal amide) [SEQ ID NO 202] ?
Outgoing: 404

// each binder listed below needs its CRF1R EC50
1. DNPSLSIDLPLHLLRTLLELARTQSQRERAEQNAIIFASV-NH2 [SEQ ID NO 179]
2. ZGPPISIDLPYTLLRKMIEIEKQEKEKQQAANNRLLLDTI (C-terminal amide) [SEQ ID NO 200]

Outgoing:
477
188

Provide reported CRF1R EC50 for each item, in the same order as listed.
1. IVLSLDVPIGLLQILLEQAKARAAREQATTNARILARV-NH2 [SEQ ID NO 109]
2. ZGPPISIDLSLELLRKMIEIEKQEKEKQQATTNARILARV (C-terminal amide) [SEQ ID NO 142]

Outgoing:
100
43.5
